Test system: DU-145 prostate
Experiment: NCI-60 one-dose screen, 48 h (100 = growth as untreated, 0 = no growth, -100 = all killed)
Details: 10 µM unless noted
This is part of a sample that, as a whole, favours compounds with a hit. Of some 83,000 tested, about 20% had one in any assay.
Please note: growth exactly at 70% is no. Only values below 70% get yes.

# structure.string, tested.system, assigned.category
data = [
    ("O=C(/C=C/c1ccco1)Nc1ncc(Cc2cc(Cl)ccc2Cl)s1", "DU-145 prostate", "yes"),
    ("CS(=O)(=O)Nc1cc(-c2ccc3ncnc(Nc4ccc5c(cnn5Cc5ccccc5F)c4)c3c2)cnc1Cl", "DU-145 prostate", "yes"),
    ("COc1ccc(NC(=O)c2ccc(Nc3ncnc4c3cnn4-c3cccc(F)c3)cc2)cc1", "DU-145 prostate", "no"),
    ("CN(C)c1ccc([C@@H](C(=O)Nc2cccc([N+](=O)[O-])c2)N(C(=O)c2cc3ccccc3[nH]2)c2cccc([N+](=O)[O-])c2)cc1", "DU-145 prostate", "no"),
]
